test: probe aXIP binding to arrayed compounds – biochemical, NeuroSMM set, 635/667 nm fluorescence, primary screen (AID 1119); conditions: small-molecule microarray, higher = more signal, called active from +8 up or from −8 down;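 also: probe is the protein aXip251-270 applied at 1 µg/mL to compound-printed slides; binding of probe to printed compounds measured as 667 nm fluorescence plus signal to noise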
Mark yes for reported composite Z-score of -0.09 or greater; mark no for anything smaller.

[
  {
    "molecule": "CCCCN1CC=CC23O[C@@H]4C=CCOC(=O)[C@@H]4[C@H]2C(=O)N(CCCCCCO)[C@@H]3C1=O (stereo partly drawn)",
    "class_assignment": "yes"
  },
  {
    "molecule": "C#CCOc1ccc(C[C@@H](C(=O)OC)N(CC#C)[C@@H](/C=C/C2CC2)[C@H](O)Cc2ccccc2)cc1",
    "class_assignment": "no"
  },
  {
    "molecule": "CC(=O)NCCCC[C@@H]1NC(=O)[C@H]2C[C@@H](C(=O)NCCCCCNC(=O)CS)[C@@H](c3ccc(O)cc3)N2C1=O",
    "class_assignment": "no"
  },
  {
    "molecule": "CC(C)[Si](C#CCCCC#N)(Oc1ccccc1Br)C(C)C",
    "class_assignment": "yes"
  },
  {
    "molecule": "NC(=O)[C@@H]1[C@H]2C(=O)O[C@H](c3ccccc3)[C@H](c3ccccc3)N2[C@H](c2ccc(OCCO)cc2)[C@@]12C(=O)Nc1ccc(C#CC3=CCCCC3)cc12",
    "class_assignment": "yes"
  },
  {
    "molecule": "C=C(/C(=C/C[C@H](OC(=O)c1ccncc1)c1ccc(OCCO)cc1)c1cc(C(=O)OC)ccc1OC)C(C)C",
    "class_assignment": "yes"
  },
  {
    "molecule": "CCCNC(=O)[C@@]1(Sc2ccc(C)cc2)CC(=O)N(Cc2ccccc2C(F)(F)F)[C@@H]1c1ccc(CO)cc1I",
    "class_assignment": "yes"
  },
  {
    "molecule": "CCCCCCCCCCC(O)C1C=CC2C(=O)NC(=O)C2N1Nc1ccc(Cl)cc1Cl (stereo not drawn)",
    "class_assignment": "no"
  }
]

Hello, the source for this data is PubChem BioAssay, in case you need it.
